TARGET: Hs_FPR2 (Homo sapiens, UniProt P25090)
Construct: expressed in transfected cells
Sequence (P25090 whole entry): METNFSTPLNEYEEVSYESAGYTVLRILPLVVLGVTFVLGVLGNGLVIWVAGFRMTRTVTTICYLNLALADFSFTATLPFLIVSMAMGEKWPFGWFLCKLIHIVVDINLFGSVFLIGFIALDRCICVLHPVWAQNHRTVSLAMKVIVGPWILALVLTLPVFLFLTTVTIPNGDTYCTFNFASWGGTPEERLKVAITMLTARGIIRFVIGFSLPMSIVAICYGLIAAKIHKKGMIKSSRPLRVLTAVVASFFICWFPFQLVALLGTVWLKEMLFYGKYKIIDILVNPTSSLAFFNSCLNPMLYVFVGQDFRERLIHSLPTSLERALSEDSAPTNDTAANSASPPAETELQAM
TEST: ERK1/2 phosphorylation by Western blotting
Type: cell-based
Design: dose or concentration left out as unconfirmed
Where a SMILES comes first, the peptide text is derived from it. The star is where a group is joined. For = O=C*
So basically, if Emax comes in under 80% it's Met, and if it's 80% or more it's Not met.

As a guide, the following entries are already answered.
MOLECULE | LABEL_VALUE
CSCC[C@H](NC(=O)[C@H](Cc1ccc(O)cc1)NC(=O)[C@H](CCCCN)NC(=O)[C@@H](N)Cc1c[nH]c2ccccc12)C(=O)N[C@H](C(=O)N[C@H](CCSC)C(N)=O)C(C)C | Not met
CSCC[C@H](NC=O)C(=O)N[C@@H](CC(C)C)C(=O)N[C@@H](Cc1ccccc1)C(=O)N[C@@H](CCCCN)C(=O)O [fMLFK, fMet-Leu-Phe-Lys] (For-MLFK-OH) | Met
CC[C@H](C)[C@H](NC(=O)[C@H](CC(C)C)NC(=O)[C@H](CCCCN)NC(=O)[C@H](CCSC)NC(=O)[C@H](CC(C)C)NC(=O)[C@@H]1CCCN1C(=O)[C@H](CC(N)=O)NC(=O)[C@@H](NC(=O)[C@H](CCCCN)NC(=O)[C@H](CCCNC(=N)N)NC(=O)[C@H](CCSC)NC(=O)[C@@H]1CCCN1C(=O)[C@@H](NC(=O)[C@H](CCSC)NC=O)[C@@H](C)O)[C@@H](C)CC)C(=O)N[C@@H](CC(N)=O)C(=O)O [MCT-2, Formyl-MTPMRKINPLMKLIN] (For-MTPMRKINPLMKLIN-OH) | Not met
CSCC[C@H](NC=O)C(=O)N[C@@H](CC(C)C)C(=O)N[C@@H](Cc1ccccc1)C(=O)O | Met

Q) Quick check: Emax of COc1cc(F)c([C@@H]2CNC(=O)[C@H]2NC(=O)Nc2ccccc2)c(F)c1 under 80%?
A) Not met

---

TARGET: Mm_Fpr2 (Mus musculus, UniProt O88536)
Construct: expressed in transfected cells
Sequence (O88536 whole entry): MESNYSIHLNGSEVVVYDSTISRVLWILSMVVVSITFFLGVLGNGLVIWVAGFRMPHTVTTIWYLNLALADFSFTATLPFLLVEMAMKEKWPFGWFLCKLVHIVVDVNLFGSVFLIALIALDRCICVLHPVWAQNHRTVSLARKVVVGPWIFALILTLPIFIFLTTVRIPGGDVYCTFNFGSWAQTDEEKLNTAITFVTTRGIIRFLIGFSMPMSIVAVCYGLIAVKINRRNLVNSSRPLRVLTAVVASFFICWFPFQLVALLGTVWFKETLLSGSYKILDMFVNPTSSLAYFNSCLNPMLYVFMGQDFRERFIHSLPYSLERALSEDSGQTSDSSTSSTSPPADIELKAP
TEST: BRET receptor-RLuc8 interaction with Arrestin 3-YFP
Format: cell-based
Where a SMILES comes first, the peptide text is derived from it. The star is where a group is joined. Palmitoyl = CCCCCCCCCCCCCCCC(=O)*
TEST_READOUT: Emax
Please append the unit to your numeric answer.

Here are 2 compounds together with their reported answers.
COMPOUND | TARGET | Emax
CSCC[C@H](NC=O)C(=O)N[C@@H](CC(C)C)C(=O)N[C@@H](Cc1ccccc1)C(=O)O | Mm_Fpr2 (Mus musculus, UniProt O88536) | 22.7%
CSCC[C@H](NC(=O)[C@H](Cc1ccc(O)cc1)NC(=O)[C@H](CCCCN)NC(=O)[C@@H](N)Cc1c[nH]c2ccccc12)C(=O)N[C@H](C(=O)N[C@H](CCSC)C(N)=O)C(C)C | Mm_Fpr2 (Mus musculus, UniProt O88536) | 101%

Q) I have this compound here, CCCCCCCCCCCCCCCC(=O)N[C@@H](CCCCN)C(=O)N[C@H](C(=O)N[C@@H](Cc1c[nH]cn1)C(=O)N[C@@H](CCCCN)C(=O)N[C@@H](CCCCN)C(=O)NCC(=O)N[C@@H](CCSC)C(=O)N[C@H](C(=O)N[C@@H](CCCCN)C(=O)N[C@@H](CO)C(=O)O)[C@@H](C)CC)[C@@H](C)CC [F2Pal10] (Palmitoyl-KIHKKGMIKS-OH) , and I need its recorded Emax.
A) 33.4%
